Values were extracted from ChEMBL document CHEMBL3352534.

- Test system: Rattus norvegicus
- assay_notes: AUC in rat plasma at 10 mg/kg, po using 10.6% PEG400, 5.4% Cremophor EL, 2.6% Labrasol, 1.4% Capmul MCM in water (80%) vehicle
- Format: ADME, organism-based
- Design: dose 10 mg/kg, route oral
- experimental_conditions: in vivo, BLD = below limit of detection
recorded_endpoint: AUC

Reported AUC ( `CCOc1cc(NC(=O)C2(NC(=O)c3ccc4c(C5CCCC5)c(-c5ncc(Cl)cn5)n(C)c4c3)CCC2)ccc1/C=C/C(=O)OCCN1CCCC1` ) = BLD

Reported AUC ( `CCOc1cc(NC(=O)C2(NC(=O)c3ccc4c(C5CCCC5)c(-c5ncc(Cl)cn5)n(C)c4c3)CCC2)ccc1/C=C/C(=O)OCC(=O)N(C)C` ) = BLD

Reported AUC ( `CCOc1cc(NC(=O)C2(NC(=O)c3ccc4c(C5CCCC5)c(-c5ncc(Cl)cn5)n(C)c4c3)CCC2)ccc1/C=C/C(=O)OCC(=O)N1CCOCC1` ) = BLD
